- method_summary: S. cerevisiae growth modulation with rapamycin, primary screen, strain BY4716, OD600, 96 h (AID 1091); also: test concentration not given here
- condition_details: higher = more signal, called active from +8 up or from −8 down

>  <molecule>
C[C@H]1C2[C@H](Cc3ccccc3)NC(=O)[C@]23C(=O)N[C@@H](Cc2ccccc2)C(=O)N2CCC[C@H]2C(=O)NC/C=C/CC/C=C/C3[C@@H]2O[C@]12C (stereo partly specified)

>  <z-score>
-0.441

$$$$
>  <molecule>
O=C1C2C=CC(C(O)C3CC=CCC3)N(Nc3ccc([N+](=O)[O-])cc3)C2C(=O)N1c1ccccc1 (stereo unspecified)

>  <z-score>
2.22

$$$$
>  <molecule>
COCCCNC(=O)[C@]1(Cc2ccccc2N=[N+]=[N-])N=C(c2ccc(OCCCO)cc2)O[C@@H]1c1ccccc1

>  <z-score>
2.48

$$$$
>  <molecule>
C=C(COC)/C(=C/C[C@@H](OC(=O)c1ccncc1)c1ccccc1OCCO)c1cnc2ccccc2c1

>  <z-score>
0.698

$$$$
>  <molecule>
C=CCNC(=O)[C@@H]1[C@H]2C(=O)O[C@H](c3ccccc3)[C@H](c3ccccc3)N2[C@H](c2ccc(O)cc2)[C@@]12C(=O)N(C(=O)OCCOC)c1ccc(C#CCC(C(=O)OC)C(=O)OC)cc12

>  <z-score>
0.624

$$$$
>  <molecule>
CCc1cccc(NC(=O)O[C@H]2[C@H](OC(=O)Nc3ccccc3-c3ccccc3)[C@H](OC(=O)Nc3ccccc3-c3ccccc3)[C@@H](OC)O[C@@H]2CO)c1

>  <z-score>
0.423

$$$$

These data points were gathered from PubChem BioAssay.
